Reference source for all entries: patent US10844032B2

Parameter: pIC50. Scope: all listed entries.
Tested on: MDA-MB-231
Assay: Cellular proliferation, CellTiter-Glo, MDA-MB-231
Format: cell-based
Conditions: Homo sapiens; MDA-MB-231, 10% FBS, 72 hours
pIC50: −log10 of the molar value.

Give the measured pIC50 for Cc1cc(OCCCc2c(C(=O)NS(=O)(=O)c3ccccc3)[nH]c3c(-c4cccnc4C)cccc23)cc(C)c1Cl 4.77

Answer with reported pIC50 of Cc1cc(OCCCc2c(C(=O)NS(=O)(=O)CCNC(=O)c3cccn3Cc3ccccc3)[nH]c3c(-c4c(CO)nn(C)c4C)cccc23)cc(C)c1Cl < 4.30

Please list pIC50 recorded for the compound Cc1cc(OCCCc2c(C(=O)NS(=O)(=O)CCNC(=O)c3cccn3C)[nH]c3c(-c4c(CO)nn(C)c4C)cccc23)cc(C)c1Cl < 4.30
